Reported Ki on Protein kinase C alpha type (Homo sapiens) for assorted compounds, compiled from publications.
observationType: Ki

INSERT INTO results (compound, reportedresult) VALUES
  ('FC(F)(F)c1ccc(N2CCCNCC2)nc1-c1n[nH]c2ncccc12', '> 1250 nM'),
  ('Nc1ncccc1C(=O)c1nc(OCC(N)C2CCOCC2)ccc1C(F)(F)F (stereo not drawn)', '> 2800 nM'),
  ('CC(C)C[C@H]1CN(c2cccc(-c3n[nH]c4ncccc34)n2)CC[C@H]1N', '< 2800 nM'),
  ('OC1([C@@H]2CN(c3ccc(F)c(-c4n[nH]c5ncccc45)n3)CCN2)CC1', '> 1250 nM'),
  ('Fc1ccc(CNc2ncc3c(n2)C(C[C@@H]2CCCNC2)C(c2c(F)cccc2Cl)=N3)cc1 (stereo partly drawn)', '> 1000 nM'),
  ('Fc1cc(Cl)ccc1CNc1ncc2nc(-c3c(Cl)cccc3Cl)n(C[C@@H]3CCCNC3)c2n1', '> 10000 nM'),
  ('CC(C)(CN)CNc1ccc(C(F)(F)F)c(C(=O)c2cccnc2N)n1', '500 to 2800 nM'),
  ('C=C(F)c1cc(-c2n[nH]c3ncccc23)nc(N2CCN[C@@H](CC(C)C)C2)c1', '> 1250 nM'),
  ('CC(C)C[C@H]1CN(c2ccc(CC(F)F)c(C(=O)c3cccnc3N)n2)CCN1', '500 to 2800 nM'),
  ('Clc1ccc(CNc2cc3c(cn2)nc(-c2c(Cl)cccc2Cl)n3CCC2CCNCC2)cc1Cl', '> 1000 nM'),
  ('NCCCNc1ncc2[nH]c(=O)n(Cc3ccccc3Br)c2n1', '> 10000 nM'),
  ('O=c1[nH]c2cnc(NCC3CCNC3)nc2n1Cc1ccccc1C(F)(F)F (stereo not drawn)', '> 1000 nM'),
  ('CC(C)(C(N)C1CCCN(c2ccc(F)c(-c3n[nH]c4ncccc34)n2)C1)C(F)(F)F (stereo not drawn)', '> 1250 nM'),
  ('Fc1ccc(CNc2ncc3nc(-c4c(Cl)cccc4Cl)n(CCC4CCNCC4)c3n2)c(F)c1', '> 1000 nM'),
  ('CC#Cc1ccc(N2CCN[C@H](c3ccccc3)C2)nc1C(=O)c1cccnc1N', '500 to 2800 nM'),
  ('Nc1ncccc1C(=O)c1nc(N2CCNCC2)ccc1Cc1ccccc1', '500 to 2800 nM'),
  ('NCC1CCN(c2ccc(F)c(-c3n[nH]c4ncccc34)n2)C1 (stereo not drawn)', '> 1250 nM'),
  ('FC(F)(F)c1ccc(N2CCC(N3CCCCC3)CC2)nc1-c1n[nH]c2ncccc12', '> 1250 nM'),
  ('CC(C)C(N)C1CN(c2ccc(C(F)(F)F)c(-c3n[nH]c4ncccc34)n2)CCO1 (stereo not drawn)', '> 1250 nM'),
  ('Fc1ccc(CNc2ncc3nc(-c4c(Cl)cccc4Cl)n(C[C@@H]4CCCNC4)c3n2)cc1F', '> 1000 nM'),
  ('N#CCc1csc(-c2ccnc3[nH]ncc23)n1', '> 1250 nM'),
  ('CC1CN(c2ccc(C(F)(F)F)c(-c3n[nH]c4ncccc34)n2)CC1CN (stereo not drawn)', '> 1250 nM'),
  ('Nc1ncccc1C(=O)c1cccc(N2CCNC(c3ccc(Cl)cc3)C2)n1 (stereo not drawn)', '500 to 2800 nM'),
  ('Nc1ncc(Br)cc1C(=O)c1cccc(N2CCCNCC2)n1', '< 50 nM'),
  ('Cc1ccc(-c2ccc(N3CCNCC3)nc2C(=O)c2cccnc2N)o1', '> 2800 nM'),
  ('CC(C)C(C)(N)C1CCCN(c2ccc(F)c(-c3n[nH]c4ncccc34)n2)C1 (stereo not drawn)', '> 1250 nM'),
  ('Nc1ncccc1C(=O)c1nc(NC[C@@H](N)c2ccccc2)ccc1C(F)(F)F', '< 50 nM'),
  ('Cc1cc([C@@H]2CN(c3ccc(F)c(-c4n[nH]c5ncccc45)n3)CCN2)[nH]n1', '> 1250 nM'),
  ('O=c1[nH]c2cnc(NC[C@H]3CCCNC3)nc2n1Cc1ccccc1Br', '> 10000 nM'),
  ('CC(C)CC1(C(F)(F)F)CN(c2ccc(C(F)(F)F)c(-c3n[nH]c4ncccc34)n2)CCC1N (stereo not drawn)', '> 1250 nM'),
  ('Nc1ncc(Br)cc1C(=O)c1nc(N2CCNC(c3ccccc3)C2)ccc1C(F)(F)F (stereo not drawn)', '< 50 nM'),
  ('CC(C)CC1(CO)CN(c2ccc(C(F)(F)F)c(-c3n[nH]c4ncccc34)n2)CCC1N (stereo not drawn)', '< 500 nM'),
  ('NC1CCN(c2cccc(-c3n[nH]c4ncccc34)n2)CC1', '> 1250 nM');

====

Reported pKi on Protein kinase C alpha type (Homo sapiens) for assorted compounds, compiled from publications.
pKi: −log10 of the molar value.
observationType: pKi

INSERT INTO results (compound, reportedresult) VALUES
  ('NC(=O)CNc1ccc(C(F)(F)F)c(C(=O)c2cccnc2N)n1', '5.55 to 6.30'),
  ('NCCOc1ccc(C(F)(F)F)c(C(=O)c2cccnc2N)n1', '5.55 to 6.30'),
  ('Cc1ccc(N2CCNCC2)nc1-c1n[nH]c2ncccc12', '< 5.55'),
  ('CC(C)CC1(CN)CCCN(c2ccc(F)c(-c3n[nH]c4ncccc34)n2)C1 (centres unmarked)', '< 5.90'),
  ('CC(C)(O)[C@H]1CN(c2cccc(-c3n[nH]c4ncccc34)n2)CCN1', '< 5.90'),
  ('Fc1ccc(Cl)cc1CNc1ncc2nc(-c3c(Cl)cccc3Cl)n(C[C@@H]3CCCNC3)c2n1', '< 6.00'),
  ('Fc1ccc(N2CCN[C@@H](CC3CC3)C2)nc1-c1n[nH]c2ncccc12', '< 5.90'),
  ('Fc1ccc(CNc2ncc3c(n2)C(C[C@H]2CCNC2)C(c2c(Cl)cccc2Cl)=N3)cc1 (some centres unmarked)', '< 6.00');

====

Reported Ki on Protein kinase C alpha type (Homo sapiens) for assorted compounds, compiled from publications.
observationType: Ki

INSERT INTO results (compound, experimentaltarget, observationtype, reportedresult) VALUES
  ('CC(C)C[C@H]1CN(c2cccc(-c3n[nH]c4ncccc34)n2)CC[C@@H]1N', 'Protein kinase C alpha type (Homo sapiens)', 'Ki', '< 2.8 µM'),
  ('Nc1ncccc1C(=O)c1nc(N2CCNC(c3ccccc3)C2)ccc1OC(F)F (stereo not shown)', 'Protein kinase C alpha type (Homo sapiens)', 'Ki', '0.5 to 2.8 µM'),
  ('O=c1[nH]c2cnc(NC[C@@H]3CCCNC3)nc2n1Cc1c(Cl)cccc1Cl', 'Protein kinase C alpha type (Homo sapiens)', 'Ki', '> 10 µM'),
  ('CC(C)C[C@]1(O)CN(c2ccc(C(F)(F)F)c(-c3n[nH]c4ncccc34)n2)CC[C@@H]1N', 'Protein kinase C alpha type (Homo sapiens)', 'Ki', '< 2.8 µM'),
  ('CC(C)C[C@H]1CN(c2cccc(-c3n[nH]c4ncccc34)n2)C[C@@H](C)N1', 'Protein kinase C alpha type (Homo sapiens)', 'Ki', '< 2.8 µM'),
  ('CC(C)C[C@@H]1CN(c2cccc(-c3n[nH]c4ncccc34)n2)CC[C@@H]1N', 'Protein kinase C alpha type (Homo sapiens)', 'Ki', '< 0.5 µM'),
  ('Clc1cccc(Cl)c1-c1nc2cnc(NCc3ccccc3)nc2n1CCC1CCNCC1', 'Protein kinase C alpha type (Homo sapiens)', 'Ki', '> 10 µM'),
  ('COc1ccc(C2CN(c3cccc(C(=O)c4cccnc4N)n3)CCN2)cc1 (stereo not shown)', 'Protein kinase C alpha type (Homo sapiens)', 'Ki', '0.5 to 2.8 µM'),
  ('CC(C)C(N)[C@H]1CCCN(c2ccc(F)c(-c3n[nH]c4ncccc34)n2)C1 (stereo partly shown)', 'Protein kinase C alpha type (Homo sapiens)', 'Ki', '> 1.25 µM'),
  ('Cc1n[nH]c2ncnc(-c3cccc(C4(CN)CC4)c3)c12', 'Protein kinase C alpha type (Homo sapiens)', 'Ki', '> 1.25 µM'),
  ('CCC(CC)C(N)C1CCCN(c2ccc(F)c(-c3n[nH]c4ncccc34)n2)C1 (stereo not shown)', 'Protein kinase C alpha type (Homo sapiens)', 'Ki', '> 1.25 µM'),
  ('Cc1cc(C(=O)c2cccnc2N)nn1C1CCCNCC1 (stereo not shown)', 'Protein kinase C alpha type (Homo sapiens)', 'Ki', '> 2.8 µM'),
  ('C[C@H]1CN(c2ccc(C(F)(F)F)c(-c3n[nH]c4ncccc34)n2)CCN1', 'Protein kinase C alpha type (Homo sapiens)', 'Ki', '> 1.25 µM'),
  ('Cc1cc(N2CCNCC2)nc(-c2n[nH]c3ncccc23)c1Cl', 'Protein kinase C alpha type (Homo sapiens)', 'Ki', '> 1.25 µM'),
  ('O=c1[nH]c2cnc(NCC3CCNC3)nc2n1Cc1c(F)cccc1F (stereo not shown)', 'Protein kinase C alpha type (Homo sapiens)', 'Ki', '> 10 µM'),
  ('OCC1CCCN(c2ccc(C(F)(F)F)c(-c3n[nH]c4ncccc34)n2)C1 (stereo not shown)', 'Protein kinase C alpha type (Homo sapiens)', 'Ki', '> 1.25 µM'),
  ('CCC[C@H]1CN(c2ccc(F)c(-c3n[nH]c4ncccc34)n2)C[C@@H]1N', 'Protein kinase C alpha type (Homo sapiens)', 'Ki', '> 1.25 µM'),
  ('CC1(N)CCCN(c2ccc(F)c(-c3n[nH]c4ncccc34)n2)C1 (stereo not shown)', 'Protein kinase C alpha type (Homo sapiens)', 'Ki', '> 1.25 µM'),
  ('CC1(C#N)CCN(c2ccc(F)c(-c3n[nH]c4ncccc34)n2)CC1', 'Protein kinase C alpha type (Homo sapiens)', 'Ki', '> 1.25 µM'),
  ('CC(Nc1ccc(C(F)(F)F)c(C(=O)c2cccnc2N)n1)[C@@H](O)c1ccccc1 (stereo partly shown)', 'Protein kinase C alpha type (Homo sapiens)', 'Ki', '> 2.8 µM'),
  ('C=C(F)c1ccc(N2CCN[C@@H](c3ccccc3)C2)nc1C(=O)c1cccnc1N', 'Protein kinase C alpha type (Homo sapiens)', 'Ki', '< 0.05 µM'),
  ('COC[C@H]1CN(c2ccc(F)c(-c3n[nH]c4ncccc34)n2)CCN1', 'Protein kinase C alpha type (Homo sapiens)', 'Ki', '> 1.25 µM'),
  ('CC(C)C(C)(O)C1CN(c2ccc(F)c(-c3n[nH]c4ncccc34)n2)CCN1C(=O)OC(C)(C)C (stereo not shown)', 'Protein kinase C alpha type (Homo sapiens)', 'Ki', '> 1.25 µM'),
  ('CCCC1CN(c2ccc(C(F)(F)F)c(-c3n[nH]c4ncccc34)n2)CCN1 (stereo not shown)', 'Protein kinase C alpha type (Homo sapiens)', 'Ki', '> 1.25 µM'),
  ('C[C@@H]1CN(c2ccc(C(F)(F)F)c(-c3n[nH]c4ncccc34)n2)CCN1', 'Protein kinase C alpha type (Homo sapiens)', 'Ki', '> 1.25 µM'),
  ('CC(C)[C@H](N)COc1ccc(C(F)(F)F)c(C(=O)c2cccnc2N)n1', 'Protein kinase C alpha type (Homo sapiens)', 'Ki', '0.5 to 2.8 µM'),
  ('CCC[C@H]1CN(c2cccc(-c3n[nH]c4ncccc34)n2)C[C@H](CC(C)C)N1', 'Protein kinase C alpha type (Homo sapiens)', 'Ki', '> 1.25 µM'),
  ('CC(C)C[C@H]1CN(c2cn(C)c(-c3n[nH]c4ncccc34)n2)CCN1', 'Protein kinase C alpha type (Homo sapiens)', 'Ki', '> 1.25 µM'),
  ('CC(C)CC1CN(c2cncc(-c3n[nH]c4ncccc34)n2)CCC1N (stereo not shown)', 'Protein kinase C alpha type (Homo sapiens)', 'Ki', '< 0.5 µM'),
  ('CC(C)C(C)(O)C1CN(c2cc(CO)cc(-c3n[nH]c4ncccc34)n2)CCN1 (stereo not shown)', 'Protein kinase C alpha type (Homo sapiens)', 'Ki', '> 1.25 µM'),
  ('NCCCNc1ncc2[nH]c(=O)n(Cc3cccc(Cl)c3Cl)c2n1', 'Protein kinase C alpha type (Homo sapiens)', 'Ki', '> 10 µM'),
  ('C=Cc1cnc(N)c(C(=O)c2nc(N3CCNC(c4ccccc4)C3)ccc2C(F)(F)F)c1 (stereo not shown)', 'Protein kinase C alpha type (Homo sapiens)', 'Ki', '< 0.05 µM'),
  ('O=c1[nH]c2cnc(NCCCn3ccnc3)nc2n1Cc1c(Cl)cccc1C(F)(F)F', 'Protein kinase C alpha type (Homo sapiens)', 'Ki', '> 10 µM'),
  ('NCc1cccc(-c2cccc(-c3n[nH]c4ncccc34)n2)c1', 'Protein kinase C alpha type (Homo sapiens)', 'Ki', '< 2.8 µM');
